Below, each entry is listed alongside its reported normalized growth.
Assay: chemical genetic growth profiling, strain panel (AID 1159580);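 also: tested at 20 µM; growth read once vehicle control cultures reached saturation at 30 °C; 1 = growth at the plate median or of vehicle wells; lower values mean less growth of the strain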
Details: S. cerevisiae deletion strains, growth OD, locus YNL183C, strain NPR1, active compounds read low
The campaign covered roughly 5,500 compounds. About 2,000 (36%) were called active. Inconclusive results (about 18%) are left out. The list shows a part of the results.

# COMPOUND, normalized growth
records = [
    ("Cc1cccc(C)c1NC(=O)C1CCCCN1C (stereo unspecified)", 0.963),
    ("CCCCC(=O)O[C@]1(C(=O)CO)CCC2C3CCC4=CC(=O)CC[C@]4(C)C3[C@@H](O)C[C@@]21C (stereo partly specified)", 0.942),
    ("CC1CCC(C(C)C)C(N(Cc2ccccc2)C(=O)c2ccccc2)C1 (stereo unspecified)", 0.975),
    ("COc1ccc(Nc2nc(NC(=O)Nc3ccc(Cl)cc3)n[nH]2)cc1", 0.763),
    ("NC(=O)CS(=O)C(c1ccccc1)c1ccccc1 (stereo unspecified)", 0.958),
    ("C[C@]12CCC3c4ccc(OC(=O)c5ccccc5)cc4CCC3C1CCC2=O (stereo partly specified)", 1.01),
]
